Assay: A CellTox Green Cytotoxicity Assay to monitor cytotoxicity in HepG2 cells - 8 hour (AID 1224890); also: % is scaled to controls: 0 for no effect and ±100 for the full control effect; nearly all actives have a fitted effect of over 45% in size
Conditions: CellTox Green fluorescence; series mostly up to 76.8 µM
Results filed as inconclusive are left out. Calls of active or inactive are those of the source. Calls follow the shape of the dose curve; as a rule, active = well fitted activation curve with a large enough effect in the repeat runs; inconclusive = weak or mixed curves; inactive = flat fitted curve, though single readings scatter.
Measured property: cytotoxicity increase

Note to self: cytotoxicity increase recorded for Cc1nc2n(c(=O)c1CCN1CCC(c3noc4cc(F)ccc34)CC1)CCC[C@H]2O was -0.979% [at 15.8 µM] (inactive)

Note to self: cytotoxicity increase recorded for CC(C)CC(C)CC(C)CC(C)COC(=O)c1ccccc1C(=O)OCC(C)CC(C)CC(C)CC(C)C (stereo not given) was inactive

Note to self: cytotoxicity increase recorded for CCCCCCCCCCCCCC was inactive

Note to self: cytotoxicity increase recorded for C[C@@H]1O[C@@H](O[C@@H]2[C@@H](O)[C@H](OCCc3ccc(O)c(O)c3)O[C@H](CO[C@@H]3O[C@H](CO)[C@@H](O)[C@H](O)[C@H]3O)[C@H]2OC(=O)/C=C/c2ccc(O)c(O)c2)[C@H](O)[C@H](O)[C@H]1O was inactive

Note to self: cytotoxicity increase recorded for Cc1ccc(S(=O)(=O)O)c(C)c1 was inactive

Note to self: cytotoxicity increase recorded for CCCCCCCC/C=C\CCCCCCCC(=O)OCCCC was -0.525% [at 15.8 µM] (inactive)

Each compound below has a recorded value; state its cytotoxicity increase.
1. CC(C)(C)c1n[nH]c(=S)n(N)c1=O
2. CC1(C)S[C@@H]2[C@H](N=CN3CCCCCC3)C(=O)N2[C@H]1C(=O)O

Return:
1: inactive; 2: inactive

Each compound below has a recorded value; state its cytotoxicity increase.
1. O=C(O)CCSSCCC(=O)O
2. NC(CO)C(=O)NNCc1ccc(O)c(O)c1O (stereo not given)

Return:
["inactive", "inactive"]

====

Biological target: Aryl hydrocarbon receptor (Homo sapiens)
Assay: qHTS assay to identify small molecule that activate the aryl hydrocarbon receptor (AhR) signaling pathway (AID 743085);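 also: HG2L7.5c1 human HepG2 liver cells with stably integrated DRE-driven firefly reporter; % is scaled to controls: 0 for no effect and ±100 for the full control effect; nearly all actives have a fitted effect of over 15% in size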
Settings: HepG2 AhR-luc (HG2L7.5c1), luciferase, 24 h; series mostly up to 70.3 µM
Results filed as inconclusive are left out. Active and inactive are the calls of the source. Calls come from the whole dose curve; as a rule, active = well fitted activation curve with a large enough effect in the repeat runs; inconclusive = weak or mixed curves; inactive = no such curve, though single readings can be large or run the other way.
Hi there, use one of these labels in your reply, thanks! true (1) (active), false (0) (inactive)

Enquiry: Test call for this molecule, please: CCCCNC1CC(C)(C)NC(C)(C)C1
Return: false (0)

Enquiry: Test call for this molecule, please: O=C(O)c1ccc(Cl)cc1Cl
Return: false (0)

Enquiry: Test call for this molecule, please: BrCc1cccc(Oc2ccccc2)c1
Return: false (0)

Next:
Enquiry: Test call for this molecule, please: O=C(O)c1cc(Cl)cc([N+](=O)[O-])c1Cl
Return: false (0)

====

Test: qHTS assay to test for compound auto fluorescence at 590 nm (red) in HEK293 cells (AID 720679); also: % is scaled to controls: 0 for no effect and ±100 for the full control effect
Conditions: red autofluorescence 540/590 nm; series mostly up to 91.3 µM
Text: National Center for Advancing Translational Sciences [NCATS] NIH Chemical Genomics Center [NCGC] U.S. Environmental Protection Agency [EPA] National Institutes of Environmental Health Sciences [NIEHS] National Toxicology Program [NTP] U.S. Food and Drug Administration [FDA] Compound auto fluorescence often interferes with screening of the compound library against various biological targets and signaling pathways. Some of these compounds may have fluorophoric properties. […]
Active and inactive are the calls of the source. The call rests on the fitted dose curve; in most records, active means well fitted curve in the direction sought with a large enough effect in the repeat runs; inconclusive means weak or mixed curves; inactive means flat fitted curve, though single readings scatter.
Measured property: fluorescence, % of fluorescent control

Known fluorescence, % of fluorescent control results, listed for orientation:
Note to self: fluorescence, % of fluorescent control recorded for Cc1cccc2nccnc12 was inactive

Note to self: fluorescence, % of fluorescent control recorded for O=C(O)CCSSCCC(=O)O was inactive

Note to self: fluorescence, % of fluorescent control recorded for CCCCNC1CC(C)(C)NC(C)(C)C1 was inactive

Note to self: fluorescence, % of fluorescent control recorded for CCOC(=O)c1ccc(OC(=O)CCCCCN=C(N)N)cc1 was 0.895% [at 18.6 µM] (inactive)

Note to self: fluorescence, % of fluorescent control recorded for CCOCCOCCOCC was inactive

Note to self: fluorescence, % of fluorescent control recorded for O=C(OCC(COC(=O)c1cccnc1)(COC(=O)c1cccnc1)COC(=O)c1cccnc1)c1cccnc1 was inactive

Note to self: fluorescence, % of fluorescent control recorded for CCOc1cc(NC(C)=O)ccc1C(=O)OC was inactive

Note to self: fluorescence, % of fluorescent control recorded for CNS(=O)(=O)CCc1ccc2[nH]cc(C3CCN(C)CC3)c2c1 was inactive

Each compound below has a recorded value; state its fluorescence, % of fluorescent control.
1. N#Cc1ccc(C(=O)O)cc1
2. C[Si](C)=O
3. O=C1c2cccc3c2[C@H](CCC3)CN1[C@@H]1CN2CCC1CC2
4. CC1=CCC(C(C)C)=CC1

Return:
1. inactive
2. -0.238% [at 9.17 µM] (inactive)
3. inactive
4. inactive

Note to self: fluorescence, % of fluorescent control recorded for Cc1nc2n(c(=O)c1CCN1CCC(c3noc4cc(F)ccc34)CC1)CCC[C@H]2O was inactive

====

Experiment: qHTS assay to test for compound auto fluorescence at 590 nm (red) in HEK293 cells (AID 720679); also: % is scaled to controls: 0 for no effect and ±100 for the full control effect
Settings: red autofluorescence 540/590 nm; series mostly up to 91.3 µM
Text: National Center for Advancing Translational Sciences [NCATS] NIH Chemical Genomics Center [NCGC] U.S. Environmental Protection Agency [EPA] National Institutes of Environmental Health Sciences [NIEHS] National Toxicology Program [NTP] U.S. Food and Drug Administration [FDA] Compound auto fluorescence often interferes with screening of the compound library against various biological targets and signaling pathways. Some of these compounds may have fluorophoric properties. […]
Activity calls are given as the source filed them. Calls follow the shape of the dose curve; as a rule, active = well fitted curve in the direction sought with a large enough effect in the repeat runs; inconclusive = weak or mixed curves; inactive = flat fitted curve, though single readings scatter.
Measured property: fluorescence, % of fluorescent control

Known fluorescence, % of fluorescent control results, listed for orientation:
Note to self: fluorescence, % of fluorescent control recorded for Nc1nnc(-c2cccc(Cl)c2Cl)c(N)n1 was inactive

Note to self: fluorescence, % of fluorescent control recorded for BrCc1cccc(Oc2ccccc2)c1 was inactive

Note to self: fluorescence, % of fluorescent control recorded for CNC(=O)[C@H]1O[C@@H](n2cnc3c(NCc4cc(Cl)ccc4OCc4cc(C)no4)ncnc32)[C@H](O)[C@@H]1N was inactive

Note to self: fluorescence, % of fluorescent control recorded for CC(=O)CCCCn1c(=O)c2c(ncn2C)n(C)c1=O was -0.0868% [at 18.6 µM] (inactive)

Shift focus to the following entry.
Note to self: fluorescence, % of fluorescent control recorded for O=C(OCC1(COC(=O)c2cccnc2)CCCC(COC(=O)c2cccnc2)(COC(=O)c2cccnc2)C1O)c1cccnc1 was inactive

====

Experiment: qHTS assay to test for compound auto fluorescence at 535 nm (green) in HEK293 cells (AID 720680); also: % is scaled to controls: 0 for no effect and ±100 for the full control effect
Details: green autofluorescence 485/535 nm; series mostly up to 91.3 µM
Calls of active or inactive are those of the source. The call rests on the fitted dose curve; in most records, active means well fitted curve in the direction sought with a large enough effect in the repeat runs; inconclusive means weak or mixed curves; inactive means flat fitted curve, though single readings scatter.
Measured property: fluorescence, % of fluorescein

Known fluorescence, % of fluorescein results, listed for orientation:
Note to self: fluorescence, % of fluorescein recorded for CCN(C)C(=O)Oc1cccc([C@H](C)N(C)C)c1 was inactive

Note to self: fluorescence, % of fluorescein recorded for O=C(O)c1cc(Br)c(O)c(Br)c1 was inactive

Note to self: fluorescence, % of fluorescein recorded for CC(C)(C)c1n[nH]c(=S)n(N)c1=O was inactive

Note to self: fluorescence, % of fluorescein recorded for CC1=CCC(C(C)C)=CC1 was inactive

Note to self: fluorescence, % of fluorescein recorded for COc1ccc(C2CNC(=O)C2)cc1OC1CCCC1 (configuration not stated) was 0.0387% [at 18.6 µM] (inactive)

Note to self: fluorescence, % of fluorescein recorded for O=C1c2ccccc2C(=O)N1CCl was inactive

Note to self: fluorescence, % of fluorescein recorded for COc1cc(C(=S)N2CCOCC2)cc(OC)c1OC was inactive

Note to self: fluorescence, % of fluorescein recorded for CCCCC(CC)COCCO (configuration not stated) was inactive

Note to self: fluorescence, % of fluorescein recorded for BrCc1cccc(Oc2ccccc2)c1 was inactive

Note to self: fluorescence, % of fluorescein recorded for C=Cc1ccccn1 was inactive

Each compound below has a recorded value; state its fluorescence, % of fluorescein.
1. CCCCCCCCCC(C)=O
2. O=C(O)c1ccc(Cl)cc1Cl
3. O=C1c2ccccc2C(=O)C1c1ccccc1
4. CCc1ccc(C=O)cc1
5. CCC(C=O)CC
6. N[C@@H](CCC(=O)Nc1ccc([N+](=O)[O-])cc1)C(=O)O
7. Cc1ccsc1/C=C/C1=NCCCN1C

Return:
inactive
inactive
-0.0324% [at 18.6 µM] (inactive)
inactive
inactive
inactive
0.007% [at 18.6 µM] (inactive)

====

Assay: qHTS assay to test for compound auto fluorescence at 460 nm (blue) in HEK293 cells (AID 720678); also: % is scaled to controls: 0 for no effect and ±100 for the full control effect
Details: blue autofluorescence 405/460 nm; series mostly up to 91.3 µM
Activity calls are given as the source filed them. Calls come from the whole dose curve; as a rule, active = well fitted curve in the direction sought with a large enough effect in the repeat runs; inconclusive = weak or mixed curves; inactive = flat fitted curve, though single readings scatter.
Measured property: fluorescence, % of triamterene

Known fluorescence, % of triamterene results, listed for orientation:
Note to self: fluorescence, % of triamterene recorded for COP(=O)(OC)OC(c1ccc(Cl)cc1)P(=O)(OC)OC (stereo unspecified) was inactive

Note to self: fluorescence, % of triamterene recorded for CCOc1cc(NC(C)=O)ccc1C(=O)OC was inactive

Note to self: fluorescence, % of triamterene recorded for CC(C)=CCOC(=O)c1ccccc1 was inactive

Note to self: fluorescence, % of triamterene recorded for BrCCCCCBr was inactive

Note to self: fluorescence, % of triamterene recorded for CC(C)NCC(O)COc1ccc(COCCOC(C)C)cc1 (stereo unspecified) was inactive

Note to self: fluorescence, % of triamterene recorded for COC(=O)C1CC(=O)C(C(=O)OC)CC1=O (stereo unspecified) was 1.94% [at 3.72 µM] (inactive)

Note to self: fluorescence, % of triamterene recorded for CCOC(=O)c1ccc(OC(=O)CCCCCN=C(N)N)cc1 was -0.0421% [at 18.6 µM] (inactive)

Note to self: fluorescence, % of triamterene recorded for Cc1cccc2nccnc12 was inactive

Each compound below has a recorded value; state its fluorescence, % of triamterene.
1. CC[C@H](C)C(=O)O[C@H]1C[C@H](O)C=C2C=C[C@H](C)[C@H](CC[C@@H](O)C[C@@H](O)CC(=O)O)[C@H]21
2. COc1nccnc1NS(=O)(=O)c1ccc(N)cc1
3. NCCN1CCOCC1

Return:
inactive
inactive
inactive

Where do the numbers come from? From PubChem BioAssay (Tox21).
